These entries and their values trace back to the RNAGym collection of RNA variant scans (doi:10.1126/science.aae0568).

B1: tRNA (parent)
chain: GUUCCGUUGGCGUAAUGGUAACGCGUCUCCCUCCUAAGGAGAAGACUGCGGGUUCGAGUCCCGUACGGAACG

variants of: B1; assay: yeast fitness relative to wild type (ratio to wild type); higher = fitter; tRNA-Arg(CCU), competitive growth, 37 C, YPD
This sample holds only a part of the variants without activity.
Given measured yeast fitness, output Criterion met if it is greater than or equal to 0.6 and Criterion not met if not.

| mutant | class |
| --- | --- |
| U13A C27U A37C C61U | Criterion not met |
| C27U C66U A69U | Criterion met |
| C33U U54C G58A | Criterion met |
| C29G U32A U64A | Criterion not met |
| U3G U28G | Criterion met |
| U8C A40C C62G | Criterion not met |
| C34G U35A A57U | Criterion not met |
| C11U A15G G63C C66U | Criterion not met |
| G25A G41A G51C C60U | Criterion not met |
| C11A A70G | Criterion met |
| U26G C27G C33U G39C U47C C49U | Criterion not met |
| G63C A69C | Criterion met |
| G56A A65G C66U A69U | Criterion not met |
| U26A A45U | Criterion met |
| A36C A57U | Criterion not met |
| A20G | Criterion met |
| A37C C46G C60A C66U | Criterion not met |
| C5G C29U C31G G44C | Criterion not met |
| C11U U32G U53A C55U C61U | Criterion not met |
| C4A C46G | Criterion met |
| U2G C33A C49G | Criterion not met |
| C11G C49A | Criterion not met |
| C5U C22G C29G C60A G67A | Criterion not met |
| C27U C31U U35C A36U C55A C66G | Criterion met |
| U13C G52C U53A C55G A69U | Criterion not met |
| G25A G48A | Criterion met |
| U7C C27U C29A G58C | Criterion not met |
| G10C C24A G51A A65G A70C | Criterion not met |
| U16A A43U C62G C66A A69C | Criterion not met |
| A20U A37C U53A | Criterion met |
| U8C C11G G58U | Criterion not met |
| C24U C34U C61U | Criterion not met |
| A14U A20C C22G C31G U47A | Criterion not met |
| U3G C5U U26A G38A C62U A70U | Criterion not met |
| A21C C62G A65C | Criterion not met |
| G41A C49U A70U | Criterion met |
| U64C A65C | Criterion met |
| A36G A43C | Criterion met |
| C4U C5G G41A A70G | Criterion not met |
| G17C C33U A43G | Criterion not met |
| G6C A20G | Criterion met |
| G9C A14G | Criterion not met |
| C5A A14G C55A A70U | Criterion not met |
